- Test system: PPARg DBDmut IVT, anti-PPARg (DBD mutation: PPARg1 K132A/R137A, NR concentration 270 nM)
- procedure details: PBM binding z-score (relative to random genomic background probes); higher = stronger binding; sequences stand for … in GC…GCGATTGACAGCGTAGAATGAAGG
Entries and their PBM binding z-score values follow.
outcome measure: PBM binding z-score

[[record]]
primary_sequence = "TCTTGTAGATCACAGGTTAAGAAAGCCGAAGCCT"
experimental_target = "PPARg DBDmut IVT, anti-PPARg (DBD mutation: PPARg1 K132A/R137A, NR concentration 270 nM)"
observed_measurement = 0.0684

[[record]]
primary_sequence = "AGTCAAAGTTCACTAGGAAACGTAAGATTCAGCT"
experimental_target = "PPARg DBDmut IVT, anti-PPARg (DBD mutation: PPARg1 K132A/R137A, NR concentration 270 nM)"
observed_measurement = 0.557

[[record]]
primary_sequence = "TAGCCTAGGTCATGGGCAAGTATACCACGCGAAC"
experimental_target = "PPARg DBDmut IVT, anti-PPARg (DBD mutation: PPARg1 K132A/R137A, NR concentration 270 nM)"
observed_measurement = 0.186

[[record]]
primary_sequence = "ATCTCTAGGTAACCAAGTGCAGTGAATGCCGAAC"
experimental_target = "PPARg DBDmut IVT, anti-PPARg (DBD mutation: PPARg1 K132A/R137A, NR concentration 270 nM)"
observed_measurement = 0.604

[[record]]
primary_sequence = "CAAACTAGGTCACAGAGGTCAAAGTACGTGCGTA"
experimental_target = "PPARg DBDmut IVT, anti-PPARg (DBD mutation: PPARg1 K132A/R137A, NR concentration 270 nM)"
observed_measurement = 3.36

[[record]]
primary_sequence = "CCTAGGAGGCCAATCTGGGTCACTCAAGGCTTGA"
experimental_target = "PPARg DBDmut IVT, anti-PPARg (DBD mutation: PPARg1 K132A/R137A, NR concentration 270 nM)"
observed_measurement = -1.3

[[record]]
primary_sequence = "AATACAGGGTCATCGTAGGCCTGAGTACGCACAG"
experimental_target = "PPARg DBDmut IVT, anti-PPARg (DBD mutation: PPARg1 K132A/R137A, NR concentration 270 nM)"
observed_measurement = 1.33

[[record]]
primary_sequence = "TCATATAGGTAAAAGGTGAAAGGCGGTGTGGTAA"
experimental_target = "PPARg DBDmut IVT, anti-PPARg (DBD mutation: PPARg1 K132A/R137A, NR concentration 270 nM)"
observed_measurement = 1.06

[[record]]
primary_sequence = "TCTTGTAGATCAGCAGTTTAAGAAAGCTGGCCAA"
experimental_target = "PPARg DBDmut IVT, anti-PPARg (DBD mutation: PPARg1 K132A/R137A, NR concentration 270 nM)"
observed_measurement = 0.0418

[[record]]
primary_sequence = "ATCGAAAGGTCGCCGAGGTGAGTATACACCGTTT"
experimental_target = "PPARg DBDmut IVT, anti-PPARg (DBD mutation: PPARg1 K132A/R137A, NR concentration 270 nM)"
observed_measurement = 0.615

[[record]]
primary_sequence = "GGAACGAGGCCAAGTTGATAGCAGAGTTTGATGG"
experimental_target = "PPARg DBDmut IVT, anti-PPARg (DBD mutation: PPARg1 K132A/R137A, NR concentration 270 nM)"
observed_measurement = -0.68

[[record]]
primary_sequence = "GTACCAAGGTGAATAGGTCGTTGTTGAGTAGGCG"
experimental_target = "PPARg DBDmut IVT, anti-PPARg (DBD mutation: PPARg1 K132A/R137A, NR concentration 270 nM)"
observed_measurement = -0.308

[[record]]
primary_sequence = "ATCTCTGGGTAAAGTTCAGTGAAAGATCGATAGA"
experimental_target = "PPARg DBDmut IVT, anti-PPARg (DBD mutation: PPARg1 K132A/R137A, NR concentration 270 nM)"
observed_measurement = 1.34

[[record]]
primary_sequence = "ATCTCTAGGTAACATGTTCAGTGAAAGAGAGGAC"
experimental_target = "PPARg DBDmut IVT, anti-PPARg (DBD mutation: PPARg1 K132A/R137A, NR concentration 270 nM)"
observed_measurement = 1.39

[[record]]
primary_sequence = "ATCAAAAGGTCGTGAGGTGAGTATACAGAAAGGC"
experimental_target = "PPARg DBDmut IVT, anti-PPARg (DBD mutation: PPARg1 K132A/R137A, NR concentration 270 nM)"
observed_measurement = 1.55

[[record]]
primary_sequence = "CCTACTGGGCCATGGTCATTGATCAGTCAAAGCA"
experimental_target = "PPARg DBDmut IVT, anti-PPARg (DBD mutation: PPARg1 K132A/R137A, NR concentration 270 nM)"
observed_measurement = -0.734

[[record]]
primary_sequence = "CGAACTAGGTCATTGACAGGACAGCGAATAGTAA"
experimental_target = "PPARg DBDmut IVT, anti-PPARg (DBD mutation: PPARg1 K132A/R137A, NR concentration 270 nM)"
observed_measurement = 0.969

[[record]]
primary_sequence = "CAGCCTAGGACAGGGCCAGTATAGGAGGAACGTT"
experimental_target = "PPARg DBDmut IVT, anti-PPARg (DBD mutation: PPARg1 K132A/R137A, NR concentration 270 nM)"
observed_measurement = -1.3

[[record]]
primary_sequence = "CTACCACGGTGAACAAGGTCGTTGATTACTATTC"
experimental_target = "PPARg DBDmut IVT, anti-PPARg (DBD mutation: PPARg1 K132A/R137A, NR concentration 270 nM)"
observed_measurement = -0.267

[[record]]
primary_sequence = "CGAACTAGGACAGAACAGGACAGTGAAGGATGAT"
experimental_target = "PPARg DBDmut IVT, anti-PPARg (DBD mutation: PPARg1 K132A/R137A, NR concentration 270 nM)"
observed_measurement = 1

[[record]]
primary_sequence = "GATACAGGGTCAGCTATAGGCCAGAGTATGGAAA"
experimental_target = "PPARg DBDmut IVT, anti-PPARg (DBD mutation: PPARg1 K132A/R137A, NR concentration 270 nM)"
observed_measurement = 0.123

[[record]]
primary_sequence = "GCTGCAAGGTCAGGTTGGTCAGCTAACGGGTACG"
experimental_target = "PPARg DBDmut IVT, anti-PPARg (DBD mutation: PPARg1 K132A/R137A, NR concentration 270 nM)"
observed_measurement = -0.859

[[record]]
primary_sequence = "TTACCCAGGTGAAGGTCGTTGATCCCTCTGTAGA"
experimental_target = "PPARg DBDmut IVT, anti-PPARg (DBD mutation: PPARg1 K132A/R137A, NR concentration 270 nM)"
observed_measurement = -0.0545

[[record]]
primary_sequence = "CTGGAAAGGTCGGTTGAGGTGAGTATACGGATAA"
experimental_target = "PPARg DBDmut IVT, anti-PPARg (DBD mutation: PPARg1 K132A/R137A, NR concentration 270 nM)"
observed_measurement = 0.0614

[[record]]
primary_sequence = "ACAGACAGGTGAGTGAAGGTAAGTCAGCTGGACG"
experimental_target = "PPARg DBDmut IVT, anti-PPARg (DBD mutation: PPARg1 K132A/R137A, NR concentration 270 nM)"
observed_measurement = -0.745

[[record]]
primary_sequence = "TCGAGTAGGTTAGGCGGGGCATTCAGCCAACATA"
experimental_target = "PPARg DBDmut IVT, anti-PPARg (DBD mutation: PPARg1 K132A/R137A, NR concentration 270 nM)"
observed_measurement = 0.361

[[record]]
primary_sequence = "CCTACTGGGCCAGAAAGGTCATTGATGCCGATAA"
experimental_target = "PPARg DBDmut IVT, anti-PPARg (DBD mutation: PPARg1 K132A/R137A, NR concentration 270 nM)"
observed_measurement = -1.13

[[record]]
primary_sequence = "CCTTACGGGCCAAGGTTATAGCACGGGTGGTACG"
experimental_target = "PPARg DBDmut IVT, anti-PPARg (DBD mutation: PPARg1 K132A/R137A, NR concentration 270 nM)"
observed_measurement = -0.861

[[record]]
primary_sequence = "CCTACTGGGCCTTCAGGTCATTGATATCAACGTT"
experimental_target = "PPARg DBDmut IVT, anti-PPARg (DBD mutation: PPARg1 K132A/R137A, NR concentration 270 nM)"
observed_measurement = 0.0216

[[record]]
primary_sequence = "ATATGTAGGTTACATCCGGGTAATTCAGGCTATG"
experimental_target = "PPARg DBDmut IVT, anti-PPARg (DBD mutation: PPARg1 K132A/R137A, NR concentration 270 nM)"
observed_measurement = 3.2

[[record]]
primary_sequence = "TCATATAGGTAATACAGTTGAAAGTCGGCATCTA"
experimental_target = "PPARg DBDmut IVT, anti-PPARg (DBD mutation: PPARg1 K132A/R137A, NR concentration 270 nM)"
observed_measurement = 1.26

[[record]]
primary_sequence = "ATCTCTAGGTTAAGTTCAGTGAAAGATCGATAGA"
experimental_target = "PPARg DBDmut IVT, anti-PPARg (DBD mutation: PPARg1 K132A/R137A, NR concentration 270 nM)"
observed_measurement = 1.46

[[record]]
primary_sequence = "TCTGCTAGGTCAACGATGGTCAGCTTATCTGCTA"
experimental_target = "PPARg DBDmut IVT, anti-PPARg (DBD mutation: PPARg1 K132A/R137A, NR concentration 270 nM)"
observed_measurement = 1.16

[[record]]
primary_sequence = "CCAGACAGGTAAGAAGGTAACTCAGCCTCGATTA"
experimental_target = "PPARg DBDmut IVT, anti-PPARg (DBD mutation: PPARg1 K132A/R137A, NR concentration 270 nM)"
observed_measurement = -0.368

[[record]]
primary_sequence = "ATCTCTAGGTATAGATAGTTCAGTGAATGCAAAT"
experimental_target = "PPARg DBDmut IVT, anti-PPARg (DBD mutation: PPARg1 K132A/R137A, NR concentration 270 nM)"
observed_measurement = 1.36

[[record]]
primary_sequence = "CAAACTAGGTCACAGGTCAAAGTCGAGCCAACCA"
experimental_target = "PPARg DBDmut IVT, anti-PPARg (DBD mutation: PPARg1 K132A/R137A, NR concentration 270 nM)"
observed_measurement = 4.09

[[record]]
primary_sequence = "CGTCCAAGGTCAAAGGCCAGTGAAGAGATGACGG"
experimental_target = "PPARg DBDmut IVT, anti-PPARg (DBD mutation: PPARg1 K132A/R137A, NR concentration 270 nM)"
observed_measurement = 0.106

[[record]]
primary_sequence = "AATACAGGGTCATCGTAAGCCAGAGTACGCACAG"
experimental_target = "PPARg DBDmut IVT, anti-PPARg (DBD mutation: PPARg1 K132A/R137A, NR concentration 270 nM)"
observed_measurement = 1.04

[[record]]
primary_sequence = "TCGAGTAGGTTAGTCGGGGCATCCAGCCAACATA"
experimental_target = "PPARg DBDmut IVT, anti-PPARg (DBD mutation: PPARg1 K132A/R137A, NR concentration 270 nM)"
observed_measurement = 0.0213

[[record]]
primary_sequence = "TCTTGGAGATCAAAGGTTAAGAAAGCCGAAGCCT"
experimental_target = "PPARg DBDmut IVT, anti-PPARg (DBD mutation: PPARg1 K132A/R137A, NR concentration 270 nM)"
observed_measurement = -0.682

[[record]]
primary_sequence = "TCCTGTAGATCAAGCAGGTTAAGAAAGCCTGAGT"
experimental_target = "PPARg DBDmut IVT, anti-PPARg (DBD mutation: PPARg1 K132A/R137A, NR concentration 270 nM)"
observed_measurement = -0.299

[[record]]
primary_sequence = "AAGACAGGGTCATCGTAGGCCAGAGTACGCACAG"
experimental_target = "PPARg DBDmut IVT, anti-PPARg (DBD mutation: PPARg1 K132A/R137A, NR concentration 270 nM)"
observed_measurement = 0.174

[[record]]
primary_sequence = "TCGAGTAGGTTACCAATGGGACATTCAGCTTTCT"
experimental_target = "PPARg DBDmut IVT, anti-PPARg (DBD mutation: PPARg1 K132A/R137A, NR concentration 270 nM)"
observed_measurement = 0.266

[[record]]
primary_sequence = "CGTCAAAGTTCAACTACGGTAACGTAAAGCACGC"
experimental_target = "PPARg DBDmut IVT, anti-PPARg (DBD mutation: PPARg1 K132A/R137A, NR concentration 270 nM)"
observed_measurement = 0.931

[[record]]
primary_sequence = "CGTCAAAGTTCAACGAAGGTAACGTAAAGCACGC"
experimental_target = "PPARg DBDmut IVT, anti-PPARg (DBD mutation: PPARg1 K132A/R137A, NR concentration 270 nM)"
observed_measurement = 0.224

[[record]]
primary_sequence = "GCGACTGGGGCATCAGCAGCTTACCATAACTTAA"
experimental_target = "PPARg DBDmut IVT, anti-PPARg (DBD mutation: PPARg1 K132A/R137A, NR concentration 270 nM)"
observed_measurement = -0.628

[[record]]
primary_sequence = "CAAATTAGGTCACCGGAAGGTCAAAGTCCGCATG"
experimental_target = "PPARg DBDmut IVT, anti-PPARg (DBD mutation: PPARg1 K132A/R137A, NR concentration 270 nM)"
observed_measurement = 4.55

[[record]]
primary_sequence = "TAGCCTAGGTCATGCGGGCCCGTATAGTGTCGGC"
experimental_target = "PPARg DBDmut IVT, anti-PPARg (DBD mutation: PPARg1 K132A/R137A, NR concentration 270 nM)"
observed_measurement = 0.0155

[[record]]
primary_sequence = "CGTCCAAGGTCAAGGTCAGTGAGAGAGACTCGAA"
experimental_target = "PPARg DBDmut IVT, anti-PPARg (DBD mutation: PPARg1 K132A/R137A, NR concentration 270 nM)"
observed_measurement = 2.41

[[record]]
primary_sequence = "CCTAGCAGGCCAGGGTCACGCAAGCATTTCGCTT"
experimental_target = "PPARg DBDmut IVT, anti-PPARg (DBD mutation: PPARg1 K132A/R137A, NR concentration 270 nM)"
observed_measurement = -1.59

[[record]]
primary_sequence = "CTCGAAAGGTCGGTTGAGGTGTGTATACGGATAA"
experimental_target = "PPARg DBDmut IVT, anti-PPARg (DBD mutation: PPARg1 K132A/R137A, NR concentration 270 nM)"
observed_measurement = -0.218

